assay: cytotoxicity to cultured tumor cell line HL60; conditions: human, hl60 cells, Suppression, 10 μg/ml
measured.endpoint: cytotoxicity at 72 h (%)
Your answer should be a plain number; it is taken to be in %.

Here is how some compounds turned out for cytotoxicity at 72 h.
Please fill in: cytotoxicity at 72 h reported for CCCCCCCCCCCCCCCC[C@@H](O)[C@H](O)[C@@](N)(CO)C(=O)O [Example 2] = 3.3

// cytotoxicity at 72 h lookup, compound = CCCCCCCCCCCCC/C=C/C[C@@H](O)[C@H](O)[C@@](N)(CO)C(=O)O [Example 5] , result: 19.4

More entries:
cytotoxicity at 72 h recorded for this compound, CCCCCCC(CCCCCC/C=C/C[C@@H](O)[C@H](O)[C@@](N)(CO)C(=O)O)=NO [Example 4] , is 8.2

* * *

test system: IL-3 production in PHA-stimulated mouse spleen cells; assay: suppression of IL-3 production in PHA-stimulated mouse spleen cells; format: cell-based; settings: 0.1 μg/ml
Measured IL-3 activity values are reported for all entries that follow.
// note: answer is a bare numeric in U/ml

Use the examples below as a reference point.
Given the molecule N[C@](CO)(C(=O)O)[C@@H](O)[C@H](O)CCO and test system IL-3 production in PHA-stimulated mouse spleen cells, the measured IL-3 activity is 23.3

// molecule CCCCCCC1(CCCCCC/C=C/C[C@@H](O)[C@H](O)[C@@](N)(CO)C(=O)O)SCCS1 , assay IL-3 production in PHA-stimulated mouse spleen cells, IL-3 activity value: 42.2

***
Entry CCCCCCCCCCCCC/C=C/C[C@@H](O)[C@H](O)[C@@](N)(CO)C(=O)O under IL-3 production in PHA-stimulated mouse spleen cells had IL-3 activity of 12.0

Measured IL-3 activity for this entry CCCCCCC(O)C=CCCCCC=CCC(O)C(O)C(N)(CO)C(=O)O (centres unmarked) on IL-3 production in PHA-stimulated mouse spleen cells: 12.2

Case CCCCCCCCCCCCCCCC[C@@H](O)[C@H](O)[C@@](N)(CO)C(=O)O , IL-3 production in PHA-stimulated mouse spleen cells, IL-3 activity recorded as 11.3
